test system: primary human mesenchymal stem cells (hMSCs); test: Induction of chondrogenesis in hMSCs (nodule area, Rhodamine B / Nile Red); format: cell-based; conditions: TGF-β3 as positive control, read-out: Max. Activity as % TGF-β3 activity

{"columns": ["Record smiles", "Emax [%]"],
 "data": [
  ["CCCC(=O)Nc1cncc(-c2ccc3[nH]nc(-c4nc5c(-c6cc(F)cc(CNS(C)(=O)=O)c6)nccc5[nH]4)c3n2)c1", 46],
  ["CN(C)c1cncc(-c2ccc3[nH]nc(-c4nc5c(-c6cccs6)nccc5[nH]4)c3n2)c1", 85],
  ["COc1cccc(-c2nccc3[nH]c(-c4n[nH]c5ccc(-c6cncc(NC(=O)Cc7ccccc7)c6)nc45)nc23)c1", 41],
  ["O=C(Cc1ccccc1)Nc1cncc(-c2ccc3[nH]nc(-c4nc5c(-c6ccncc6)nccc5[nH]4)c3n2)c1", 74],
  ["CCCCC(=O)Nc1cncc(-c2ccc3[nH]nc(-c4nc5c(-c6ccoc6)nccc5[nH]4)c3n2)c1", 91],
  ["CN(C)CC(=O)Nc1cncc(-c2ccc3[nH]nc(-c4nc5c(-c6cccc(F)c6)nccc5[nH]4)c3n2)c1", 63],
  ["NC1CN(c2cncc(-c3ccc4[nH]nc(-c5nc6c(-c7cccc(F)c7)nccc6[nH]5)c4n3)n2)C1", 36]
]}
